system: L1210; test: L1210 cytotoxic potency; conditions: read-out: IC50 (cytotoxic potency); L1210
Criterion: IC50 strictly less than 0.05 nM. Met: TRUE. Not met: FALSE.

Example entries and their recorded answers appear below.
COMPOUND	MEASUREMENT TARGET	ASSIGNED LABEL
CCSc1ccc2[nH]c(C(=O)N3CC4CC45C3=CC(=O)c3ccccc35)cc2c1 (stereo not shown)	L1210	FALSE
CCCC(=O)c1ccc2[nH]c(C(=O)N3C[C@H]4C[C@@]45C3=CC(=O)c3ccccc35)cc2c1	L1210	TRUE
CCc1ccc2[nH]c(C(=O)N3CC4CC45C3=CC(=O)c3ccccc35)cc2c1 (stereo not shown)	L1210	FALSE
Cc1ccc2[nH]c(C(=O)N3C[C@H]4C[C@@]45C3=CC(=O)c3ccccc35)cc2c1	L1210	FALSE
N#Cc1ccc2[nH]c(C(=O)N3CC4CC45C3=CC(=O)c3ccccc35)cc2c1 (stereo not shown)	L1210	TRUE

Find out if reported IC50 for COc1cc2cc(C(=O)N3CC4CC45C3=CC(=O)c3ccccc35)[nH]c2c(OC)c1OC (stereo not shown) [CBI-TMI, reference compound] is less than 0.05 nM
TRUE

Find out if reported IC50 for CCOc1ccc2[nH]c(C(=O)N3CC4CC45C3=CC(=O)c3ccccc35)cc2c1 (stereo not shown) is less than 0.05 nM
TRUE

---

system: L1210; experiment: L1210 cytotoxic potency; settings: Mus musculus, L1210, read-out: IC50 (cytotoxic potency)
OUTCOME MEASURE: pIC50
Give bare numbers, as −log10 of the molar value.

The examples below pair each entry with its known result.
COMPOUND	ENDPOINT VALUE
COc1c(O)c2c(c3cc(C(=O)N4CCc5c4c(O)c(OC)c4[nH]c(C(=O)N6CC7CC78C6=CC(=O)c6[nH]cc(C)c68)cc54)[nH]c13)CCN2C(N)=O (centres unmarked) [CC-1065]	10.70
CCS(=O)(=O)c1ccc2[nH]c(C(=O)N3C[C@@H](CCl)c4c3cc(O)c3ccccc43)cc2c1 [compound 65]	10.40
CS(=O)(=O)c1ccc2[nH]c(C(=O)N3C[C@@H](CCl)c4c3cc(O)c3ccccc43)cc2c1 [compound 64]	11.52

We now examine a further compound.
Look at this compound and give its reported pIC50. O=C(c1cc2cc([N+](=O)[O-])ccc2[nH]1)N1C[C@@H](CCl)c2c1cc(O)c1ccccc21 [compound 49]
10.70

---

system: L1210; test: L1210 cytotoxic potency; conditions: read-out: IC50 (cytotoxic potency); L1210
OUTCOME MEASURE: IC50 (nM)
One number for each entry, in nM.

MOLECULE	QUANTITY UNIT	ENDPOINT VALUE
COc1ccc2[nH]c(C(=O)N3C[C@H]4C[C@@]45C3=CC(=O)c3ccccc35)cc2c1	nM	0.05
O=C1C=C2N(C(=O)c3cc4ccccc4[nH]3)CC3CC23c2ccccc21 (stereo not drawn) [compound 5, reference compound]	nM	0.05

We now examine a further molecule.
Look at this molecule and give its reported IC50. CSc1ccc2[nH]c(C(=O)N3CC4CC45C3=CC(=O)c3ccccc35)cc2c1 (stereo not drawn)
0.05
